Data provenance is ChEMBL document CHEMBL1141364.

EC50 values by entry
target: Peroxisome proliferator-activated receptor alpha (Rattus norvegicus, UniProt P37230); assay: Agonist activity at rat PPARalpha in rat H4IIE cells assessed as gene induction
Sequence (P37230 whole entry): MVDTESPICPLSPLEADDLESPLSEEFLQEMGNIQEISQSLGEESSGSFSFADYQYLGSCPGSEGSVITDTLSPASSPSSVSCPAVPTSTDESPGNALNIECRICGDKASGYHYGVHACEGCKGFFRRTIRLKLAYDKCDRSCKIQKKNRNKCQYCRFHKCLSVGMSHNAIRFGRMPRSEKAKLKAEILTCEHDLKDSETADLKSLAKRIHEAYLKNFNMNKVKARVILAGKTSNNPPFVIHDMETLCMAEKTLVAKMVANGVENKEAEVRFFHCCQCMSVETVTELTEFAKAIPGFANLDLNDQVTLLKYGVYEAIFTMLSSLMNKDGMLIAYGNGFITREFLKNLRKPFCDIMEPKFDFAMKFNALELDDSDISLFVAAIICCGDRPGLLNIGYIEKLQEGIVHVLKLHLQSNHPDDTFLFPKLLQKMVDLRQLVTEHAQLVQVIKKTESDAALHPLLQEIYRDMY

Examples with their reported EC50 follow.
{"columns": ["COMPOUND", "QUANTITY_NAME", "RECORDED_VALUE"],
 "data": [
  ["CCCCCCCN(C(=O)Nc1ccc(OC(F)(F)F)cc1)[C@H]1Cc2ccc(SC(C)(C)C(=O)O)cc2C1", "EC50", "> 13000 nM"],
  ["CC(C)N(C(=O)Nc1ccc(OC(F)(F)F)cc1)C1Cc2ccc(SC(C)(C)C(=O)O)cc2C1 (stereo unspecified)", "EC50", "> 5000 nM"],
  ["CN(C(=O)Nc1ccc(OC(F)(F)F)cc1)C1Cc2ccc(SC(C)(C)C(=O)O)cc2C1 (stereo unspecified)", "EC50", "2850 nM"]
]}

Incoming: Request: EC50, test system Peroxisome proliferator-activated receptor alpha (Rattus norvegicus, UniProt P37230), entry CCN(C(=O)Nc1ccc(OC(F)(F)F)cc1Br)C1Cc2ccc(SC(C)(C)C(=O)O)cc2C1 (stereo unspecified)
Outgoing: > 1000 nM

Incoming: Request: EC50, test system Peroxisome proliferator-activated receptor alpha (Rattus norvegicus, UniProt P37230), entry CCCCCCCN(C(=O)Nc1ccccc1OC(F)(F)F)C1Cc2ccc(SC(C)(C)C(=O)O)cc2C1 (stereo unspecified)
Outgoing: 4990 nM

Incoming: Request: EC50, test system Peroxisome proliferator-activated receptor alpha (Rattus norvegicus, UniProt P37230), entry CCCCCCCN(C(=O)Nc1cccc(F)c1)C1Cc2ccc(SC(C)(C)C(=O)O)cc2C1 (stereo unspecified)
Outgoing: 2670 nM

----------
half-life at 5 µM values by entry
assay: Metabolic stability in human liver microsomes at 5 uM; type: ADME, Microsome
Report the value in h with no unit label.

{"columns": ["MOLECULE", "UNIT_OF_MEASURE", "RECORDED_VALUE"],
 "data": [
  ["CCCCCN(C(=O)Nc1ccc(SC(F)(F)F)cc1)C1Cc2ccc(SC(C)(C)C(=O)O)cc2C1 (centres undefined)", "h", 1.27],
  ["CCCCCN(C(=O)Nc1ccc(OC(F)(F)F)cc1)C1Cc2ccc(SC(C)(C)C(=O)O)cc2C1 (centres undefined)", "h", 1.67],
  ["CCN(C(=O)Nc1ccc(SC(F)(F)F)cc1)C1Cc2ccc(SC(C)(C)C(=O)O)cc2C1 (centres undefined)", "h", 1.67]
]}

Incoming: What half-life at 5 µM value was documented for this molecule, CCN(C(=O)Nc1ccc(C(C)C)cc1)C1Cc2ccc(SC(C)(C)C(=O)O)cc2C1 (centres undefined) ?
Outgoing: 0.2
